- System Under Test: SIRT1 (Homo sapiens, UniProt Q96EB6)
- Sequence (Q96EB6 whole entry): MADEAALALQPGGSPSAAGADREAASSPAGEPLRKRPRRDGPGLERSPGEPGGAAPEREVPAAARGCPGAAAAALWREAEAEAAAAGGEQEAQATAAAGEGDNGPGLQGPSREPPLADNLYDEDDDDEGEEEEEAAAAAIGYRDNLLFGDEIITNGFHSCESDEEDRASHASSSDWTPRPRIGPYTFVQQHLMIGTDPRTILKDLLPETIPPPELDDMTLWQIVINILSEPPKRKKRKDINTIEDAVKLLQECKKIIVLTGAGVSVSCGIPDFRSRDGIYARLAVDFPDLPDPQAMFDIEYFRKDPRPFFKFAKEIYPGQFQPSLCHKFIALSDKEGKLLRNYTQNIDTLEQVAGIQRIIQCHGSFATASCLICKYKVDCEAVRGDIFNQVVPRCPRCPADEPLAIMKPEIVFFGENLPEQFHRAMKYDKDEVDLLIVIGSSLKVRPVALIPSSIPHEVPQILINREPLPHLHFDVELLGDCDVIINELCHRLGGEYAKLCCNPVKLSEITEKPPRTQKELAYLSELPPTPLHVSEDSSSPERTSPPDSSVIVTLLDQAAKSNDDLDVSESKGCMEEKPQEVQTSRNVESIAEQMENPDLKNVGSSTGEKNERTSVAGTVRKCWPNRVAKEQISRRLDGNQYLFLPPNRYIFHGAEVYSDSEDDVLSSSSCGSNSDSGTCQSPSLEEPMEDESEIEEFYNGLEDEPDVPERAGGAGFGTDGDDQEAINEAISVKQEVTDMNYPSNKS
- Method Summary: TAMRA based mass spectrometry assay of SIRT1 activity
- Assay type: biochemical
- Particulars: concentration of test compound giving 150% activation of SIRT1; TAMRA peptide substrate

Compound Smiles | System Under Test | TAMRA EC1.5 (μM)
O=C(Nc1nc(CN2CCOCC2)cs1)c1cnc2ccc(-c3ccccc3C(F)(F)F)nn12 | SIRT1 (Homo sapiens, UniProt Q96EB6) | A (EC1.5<1 μM)
O=C(Nc1cnc2ccc(-c3ccccc3C(F)(F)F)nn12)c1cccc(N2CCC2)n1 | SIRT1 (Homo sapiens, UniProt Q96EB6) | A (EC1.5<1 μM)
O=C(Nc1nccs1)c1cnc2ccc(-c3ccccc3C(F)(F)F)nn12 | SIRT1 (Homo sapiens, UniProt Q96EB6) | B (EC1.5 1-25 μM)
O=C(Nc1nc(CN2CCOCC2)cs1)c1cnc2ccc(-c3cccc(F)c3)nn12 | SIRT1 (Homo sapiens, UniProt Q96EB6) | B (EC1.5 1-25 μM)

From: patent US9957271B2
